Below is a list of entries, each paired with its recorded IC50, inhibition of 100 pM GCG-stimulated luciferase activity, hGCGR reporter cells value.
assay-target: human GCGR (full-length, on HEK293 reporter cells) (human, UniProt P47871 27-477)
Sequence (P47871 27-477): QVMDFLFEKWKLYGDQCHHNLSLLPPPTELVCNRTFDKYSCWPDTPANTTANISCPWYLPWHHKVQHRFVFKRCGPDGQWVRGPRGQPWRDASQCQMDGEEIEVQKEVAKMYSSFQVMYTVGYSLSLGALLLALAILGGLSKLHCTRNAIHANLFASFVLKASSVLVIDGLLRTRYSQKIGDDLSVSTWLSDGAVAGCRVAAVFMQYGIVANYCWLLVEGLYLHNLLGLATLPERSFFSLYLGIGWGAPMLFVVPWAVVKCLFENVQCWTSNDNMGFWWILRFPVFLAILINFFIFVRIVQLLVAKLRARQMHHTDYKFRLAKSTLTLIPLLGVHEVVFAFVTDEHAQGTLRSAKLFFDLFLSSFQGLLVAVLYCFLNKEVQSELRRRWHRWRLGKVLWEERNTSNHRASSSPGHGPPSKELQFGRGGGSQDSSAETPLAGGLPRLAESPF
assay-procedure: cell-based or functional assay
Express it in nM; write the number only.

H4H1327P (antibody, V domains shown, also called anti-GCGR (hIgG4) antibody designated H4H1327P) VH: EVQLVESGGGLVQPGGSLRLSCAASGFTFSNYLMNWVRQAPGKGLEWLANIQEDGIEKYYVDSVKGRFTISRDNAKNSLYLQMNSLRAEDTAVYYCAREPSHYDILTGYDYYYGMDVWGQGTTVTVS VL: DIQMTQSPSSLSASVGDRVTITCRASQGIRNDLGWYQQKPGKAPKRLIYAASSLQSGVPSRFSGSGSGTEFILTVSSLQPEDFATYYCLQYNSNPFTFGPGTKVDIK: 0.39
H4H1765N (antibody, V domains shown, Anti-GCGR antibody from hybridoma; the controls are called isotype-matched hIgG4) VH: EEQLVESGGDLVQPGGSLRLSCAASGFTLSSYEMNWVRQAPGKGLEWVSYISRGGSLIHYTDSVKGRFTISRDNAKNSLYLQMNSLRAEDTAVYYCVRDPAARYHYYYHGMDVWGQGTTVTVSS VL: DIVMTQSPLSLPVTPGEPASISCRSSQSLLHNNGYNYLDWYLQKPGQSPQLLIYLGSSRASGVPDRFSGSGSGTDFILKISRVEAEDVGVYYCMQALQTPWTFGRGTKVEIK: 12.8
H4H1328P (antibody, V domains shown, Fully human anti-GCGR antibody; the controls are called isotype-matched hIgG4) VH: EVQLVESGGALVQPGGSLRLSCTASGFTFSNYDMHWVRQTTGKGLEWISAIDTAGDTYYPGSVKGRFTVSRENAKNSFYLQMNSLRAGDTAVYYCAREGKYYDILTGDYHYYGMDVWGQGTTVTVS VL: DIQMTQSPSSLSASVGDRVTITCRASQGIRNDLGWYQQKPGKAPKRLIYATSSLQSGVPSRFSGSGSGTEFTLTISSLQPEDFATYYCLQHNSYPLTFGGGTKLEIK: 0.24
H4H1339P (antibody, V domains shown, Fully human anti-GCGR antibody; the controls are called isotype-matched hIgG4) VH: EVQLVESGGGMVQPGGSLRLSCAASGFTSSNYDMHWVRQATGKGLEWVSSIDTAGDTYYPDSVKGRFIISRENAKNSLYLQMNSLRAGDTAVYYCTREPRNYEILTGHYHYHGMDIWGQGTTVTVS VL: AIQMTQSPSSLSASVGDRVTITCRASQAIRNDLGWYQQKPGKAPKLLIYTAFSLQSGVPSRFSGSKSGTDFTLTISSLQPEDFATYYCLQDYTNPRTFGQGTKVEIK: 0.46
H4H1321P (antibody, V domains shown, Fully human anti-GCGR antibody; the controls are called isotype-matched hIgG4) VH: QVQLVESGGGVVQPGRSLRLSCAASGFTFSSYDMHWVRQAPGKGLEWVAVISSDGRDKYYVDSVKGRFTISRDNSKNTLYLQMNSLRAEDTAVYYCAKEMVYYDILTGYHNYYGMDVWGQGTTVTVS VL: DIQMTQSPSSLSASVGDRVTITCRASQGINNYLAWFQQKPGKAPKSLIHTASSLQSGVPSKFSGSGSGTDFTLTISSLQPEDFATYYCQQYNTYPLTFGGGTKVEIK: 0.27

Q: Sample H4H1331P (antibody, V domains shown, Fully human anti-GCGR antibody; the controls are called isotype-matched hIgG4) VH: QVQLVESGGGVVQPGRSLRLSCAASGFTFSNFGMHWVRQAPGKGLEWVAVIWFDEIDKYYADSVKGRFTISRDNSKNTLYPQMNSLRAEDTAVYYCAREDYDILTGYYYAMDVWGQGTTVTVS VL: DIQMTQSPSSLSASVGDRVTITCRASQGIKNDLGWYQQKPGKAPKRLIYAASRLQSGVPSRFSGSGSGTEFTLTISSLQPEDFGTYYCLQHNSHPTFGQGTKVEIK — what was its IC50, inhibition of 100 pM GCG-stimulated luciferase activity, hGCGR reporter cells?
Result: 0.66
